Entries and their MIC
- Tested on: Ps. aeruginosa AK 109
- Assay Explanation: in vitro antibacterial activity, agar plate dilution method (MIC)
- Format: cell-based, Pseudomonas aeruginosa
- Experimental Conditions: Pseudomonas aeruginosa, AK109, 16 h, Ps. aeruginosa AK 109; 10^6 CFU/ml; read-out: Minimum Inhibitory Concentration (MIC)

>  <Compound>
CC(C)(O/N=C(\C(=O)N[C@@H]1C(=O)N2C(C(=O)O)=C(CSc3nnc(-c4ccc(O)cc4)s3)CS[C@H]12)c1csc(N)n1)C(=O)O [compound 8, reference compound]

>  <Value Modifier>
=

>  <MIC (µg/mL)>
25

$$$$
>  <Compound>
CO/N=C(\C(=O)N[C@@H]1C(=O)N2C(C(=O)O)=C(CSc3nc(-c4ccc(OC(C)=O)cc4)c(CC(=O)O)s3)CS[C@H]12)c1csc(N)n1 [compound 18, reference compound]

>  <Value Modifier>
>

>  <MIC (µg/mL)>
100

$$$$
>  <Compound>
CC(C)(O/N=C(\C(=O)N[C@@H]1C(=O)N2C(C(=O)O)=C(CSc3nnc(-c4ccc(O)c(O)c4)o3)CS[C@H]12)c1csc(N)n1)C(=O)O

>  <Value Modifier>
=

>  <MIC (µg/mL)>
0.2

$$$$

###

Entries and their MIC
- System: Ps. aeruginosa AK 109
- Assay Explanation: in vitro antibacterial activity, agar plate dilution method (MIC)
- Format: cell-based, Pseudomonas aeruginosa
- Experimental Conditions: Pseudomonas aeruginosa, AK109, 16 h, read-out: Minimum Inhibitory Concentration (MIC)
Measured Attribute: MIC (mg/L)

>  <Compound>
C=CCO/N=C(\C(=O)N[C@@H]1C(=O)N2C(C(=O)O)=C(CSc3nnc(-c4ccc(O)c(O)c4)s3)CS[C@H]12)c1csc(N)n1 [compound 30]

>  <Recorded Result>
0.39

$$$$
>  <Compound>
CCON=C(C(=O)NC1C(=O)N2C(C(=O)O)=C(CSc3nc(C(=O)O)c(-c4ccc(O)c(O)c4)s3)CSC12)c1csc(N)n1 (stereo not drawn) [compound 53]

>  <Recorded Result>
3.12

$$$$
>  <Compound>
CCO/N=C(\C(=O)N[C@@H]1C(=O)N2C(C(=O)O)=C(CSc3nnc(-c4ccc(O)c(O)c4)o3)CS[C@H]12)c1csc(N)n1 [Ex. 5]

>  <Recorded Result>
0.39

$$$$
>  <Compound>
CC(=O)Oc1ccc(-c2nc(SCC3=C(C(=O)O)N4C(=O)C(NC(=O)C(=NOC(C(=O)O)c5ccccc5)c5csc(N)n5)C4SC3)sc2CC(=O)O)cc1OC(C)=O (single isomer, unassigned) [Example 61 DA]

>  <Recorded Result>
0.39

$$$$
>  <Compound>
CC(C)ON=C(C(=O)NC1C(=O)N2C(C(=O)O)=C(CSc3nc(-c4ccc(O)c(O)c4)cs3)CSC12)c1csc(N)n1 (stereo not drawn) [Ex. 41]

>  <Recorded Result>
0.39

$$$$
>  <Compound>
CO/N=C(\C(=O)N[C@@H]1C(=O)N2C(C(=O)O)=C(CSc3nnc(-c4ccc(OC(C)=O)c(OC(C)=O)c4)o3)CS[C@H]12)c1csc(N)n1 [Ex. 4]

>  <Recorded Result>
0.39

$$$$

###

- Test system: S. aureus 209P NIHJ-JC1
- Assay Explanation: in vitro antibacterial activity, agar plate dilution method (MIC)
- Format: cell-based
- Experimental Conditions: Staphylococcus aureus, 16 h, read-out: Minimum Inhibitory Concentration (MIC), S. aureus 209P NIHJ-JC1; 10^6 CFU/ml, 37° C., 16 hours

>  <Compound>
C=CCON=C(C(=O)NC1C(=O)N2C(C(=O)O)=C(CSc3nc(-c4ccc(O)c(O)c4)cs3)CSC12)c1csc(N)n1 (stereo not drawn) [Ex. 42]

>  <Units Symbol>
µg/mL

>  <MIC>
0.78

$$$$
>  <Compound>
CO/N=C(\C(=O)N[C@@H]1C(=O)N2C(C(=O)O)=C(CSc3nnc(-c4ccc(O)c(O)c4)o3)CS[C@H]12)c1csc(N)n1 [Ex. 1]

>  <Units Symbol>
µg/mL

>  <MIC>
1.56

$$$$
>  <Compound>
C=CCO/N=C(\C(=O)N[C@@H]1C(=O)N2C(C(=O)O)=C(CSc3nnc(-c4ccc(O)c(O)c4)o3)CS[C@H]12)c1csc(N)n1 [Ex. 8]

>  <Units Symbol>
µg/mL

>  <MIC>
0.78

$$$$

src = patent US5061794A
